Data credit: patent US11648254B2

Test: In vitro plasma protein binding (PPB)
Assay type: in vitro ADME
Details: percentage of free/unbound compound
Known DMPK-invitro-PPB (Mouse Unbound) [%] of a selection of molecules
observation.type: DMPK-invitro-PPB (Mouse Unbound) [%]

> print(dat)
                                   molecule                      observation.type  result.value
1  COc1nc2ncnc(N[C@H](C)c3cccc(C(F)(F)C(C)(C)O)c3F)c2cc1C1(C#N)CC1 [Compound 356]  DMPK-invitro-PPB (Mouse Unbound) [%]         0.48%
2  COc1nc2nc(C)nc(N[C@H](C)c3cccc(C(F)(F)C(C)(C)O)c3F)c2cc1C1(C#N)CC1 [Compound 207]  DMPK-invitro-PPB (Mouse Unbound) [%]         0.06%
3  COc1nc2nc(C)nc(N[C@H](C)c3cccc(C(F)F)c3F)c2cc1C1CCS(=O)(=O)CC1 [Compound 102]  DMPK-invitro-PPB (Mouse Unbound) [%]         2.56%
4  COc1nc2nc(C)nc(N[C@H](C)c3cccc(C(F)(F)F)c3C)c2cc1C1CCN(C(C)C)CC1 [Compound 236]  DMPK-invitro-PPB (Mouse Unbound) [%]         0.11%
5  COc1nc2nc(C)nc(N[C@H](C)c3cccc(C(F)F)c3F)c2cc1N1CCN(C)CC1 [Compound 103]  DMPK-invitro-PPB (Mouse Unbound) [%]         5.15%
6  COc1nc2nc(C)nc(N[C@H](C)c3cccc(C(F)(F)C(C)(C)O)c3)c2cc1C1(C#N)CC1 [Compound 175]  DMPK-invitro-PPB (Mouse Unbound) [%]         0.11%
7  COc1nc2ncnc(N[C@H](C)c3cccc(C(F)F)c3F)c2cc1N1CCS(=O)(=O)CC1 [Compound 339]  DMPK-invitro-PPB (Mouse Unbound) [%]        15.32%

###

Known IC50 of a selection of compounds
Molecular target: SOS1 (Homo sapiens (Human), UniProt Q07889)
Sequence (Q07889 564-1049): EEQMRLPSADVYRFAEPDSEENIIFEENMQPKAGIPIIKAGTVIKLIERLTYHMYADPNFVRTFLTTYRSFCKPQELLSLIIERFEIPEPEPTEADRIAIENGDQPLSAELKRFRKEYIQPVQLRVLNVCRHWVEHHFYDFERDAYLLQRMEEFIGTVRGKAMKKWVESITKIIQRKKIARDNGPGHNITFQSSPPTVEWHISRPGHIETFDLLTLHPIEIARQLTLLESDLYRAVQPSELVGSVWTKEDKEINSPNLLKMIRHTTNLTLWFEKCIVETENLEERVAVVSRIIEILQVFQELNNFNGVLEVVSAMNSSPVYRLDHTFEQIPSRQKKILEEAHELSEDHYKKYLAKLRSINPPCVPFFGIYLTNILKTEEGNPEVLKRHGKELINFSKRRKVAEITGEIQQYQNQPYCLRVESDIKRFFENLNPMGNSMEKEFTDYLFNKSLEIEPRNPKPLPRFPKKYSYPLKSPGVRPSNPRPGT
Test: Ras-SOS interaction assay (HTRF)
Type: biochemical
Conditions: K-RasG13D, read-out: IC50 value against SOS1
observation.type: IC50

> print(dat)
                               sample.smiles  observation.type  result.value
 1  COc1nc2nc(C)nc(N[C@H](C)c3cccc(C(F)F)c3F)c2cc1[C@H]1CCCN(C)C1              IC50       < 50 nM
 2  COc1nc2nc(C)nc(N[C@H](C)c3cccc(C(F)F)c3F)c2cc1N1CCN(C)CC1              IC50       < 50 nM
 3  CNc1nc2nc(C)nc(N[C@H](C)c3cccc(C(F)F)c3F)c2cc1S(=O)(=O)C1CCN(C)CC1              IC50       < 50 nM
 4  Cc1nc(N[C@H](C)c2cccc(C(F)(F)CO)c2)c2cc(C3(C#N)CC3)c(Cl)nc2n1              IC50       < 50 nM
 5  COc1nc2ncnc(N[C@H](C)c3cccc(C(F)F)c3F)c2cc1C1CCN(C)CC1              IC50       < 50 nM
 6  COc1nc2nc(CCN3CCC3)nc(N[C@H](C)c3cccc(C(F)(F)F)c3C)c2cc1C1(C#N)CC1              IC50       < 50 nM
 7  COc1nc2nc(C)nc(N[C@H](C)c3cccc(C(F)F)c3F)c2cc1C1CCN(C(=O)NC2CN(C)C2)CC1              IC50       < 50 nM
 8  COc1nc2ncnc(N[C@H](C)c3cccc(C(F)(F)F)c3C)c2cc1N1CCN(C)CC1              IC50       < 50 nM
 9  COc1nc2ncnc(N[C@H](C)c3cccc(C(F)(F)F)c3F)c2cc1N1CCS(=O)(=O)CC1              IC50       < 50 nM
10  COc1nc2nc(C)nc(N[C@H](C)c3cccc(C(F)(F)C(C)(C)O)c3)c2cc1N1CCN(C)CC1              IC50       < 50 nM
11  COc1nc2nc(C)nc(N[C@H](C)c3cccc(C(F)(F)CO)c3)c2cc1N1CCN(C(C)C)CC1              IC50       < 50 nM
12  CCN1CCN(c2cc3c(N[C@H](C)c4cccc(C(F)F)c4F)nc(C)nc3nc2OC2CN(C)C2)CC1              IC50       < 50 nM
13  COc1nc2nc(C)nc(N[C@H](C)c3cccc(C(F)(F)F)c3C)c2cc1C1CCN(C2CCOCC2)CC1              IC50       < 50 nM
14  C[C@@H](Nc1ncnc2nc(OC3COC3)c(C3CCS(=O)(=O)CC3)cc12)c1cccc(C(F)F)c1F              IC50       < 50 nM
15  Cc1nc(N[C@H](C)c2cccc(C(F)F)c2F)c2cc(C3CCN(C)CC3)c(OCCN(C)C)nc2n1              IC50       < 50 nM
